# target-desc: progesterone receptors in MTW9/PL2 cells
# Sequence (Q63449 669-923 limits assumed): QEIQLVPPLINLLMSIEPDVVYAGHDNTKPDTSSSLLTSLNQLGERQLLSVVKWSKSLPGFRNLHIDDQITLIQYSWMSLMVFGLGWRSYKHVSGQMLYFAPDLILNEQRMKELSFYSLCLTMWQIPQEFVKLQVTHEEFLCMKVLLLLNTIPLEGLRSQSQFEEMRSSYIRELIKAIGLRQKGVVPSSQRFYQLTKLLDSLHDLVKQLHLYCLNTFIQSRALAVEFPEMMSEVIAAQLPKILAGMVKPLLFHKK
# protocol-details: ^3H-progesterone binding to MTW9/PL2 cells
# experimental-parameters: read-out: Kd of ^3H-progesterone binding, Scatchard analysis; whole cells, 37° C.
endpoint-name: Kd (nM)
Could you give me the number in nM? Just the number is fine.

Form field: Kd recorded for `CC(=O)[C@H]1CC[C@H]2[C@@H]3CCC4=CC(=O)CC[C@]4(C)[C@H]3CC[C@]12C` with progesterone receptors in MTW9/PL2 cells (enter value)
1.02
